Entry source: ChEMBL document CHEMBL1127081

- Target: GMP synthase [glutamine-hydrolyzing] (Mus musculus)
- Sequence (Q3THK7 whole entry): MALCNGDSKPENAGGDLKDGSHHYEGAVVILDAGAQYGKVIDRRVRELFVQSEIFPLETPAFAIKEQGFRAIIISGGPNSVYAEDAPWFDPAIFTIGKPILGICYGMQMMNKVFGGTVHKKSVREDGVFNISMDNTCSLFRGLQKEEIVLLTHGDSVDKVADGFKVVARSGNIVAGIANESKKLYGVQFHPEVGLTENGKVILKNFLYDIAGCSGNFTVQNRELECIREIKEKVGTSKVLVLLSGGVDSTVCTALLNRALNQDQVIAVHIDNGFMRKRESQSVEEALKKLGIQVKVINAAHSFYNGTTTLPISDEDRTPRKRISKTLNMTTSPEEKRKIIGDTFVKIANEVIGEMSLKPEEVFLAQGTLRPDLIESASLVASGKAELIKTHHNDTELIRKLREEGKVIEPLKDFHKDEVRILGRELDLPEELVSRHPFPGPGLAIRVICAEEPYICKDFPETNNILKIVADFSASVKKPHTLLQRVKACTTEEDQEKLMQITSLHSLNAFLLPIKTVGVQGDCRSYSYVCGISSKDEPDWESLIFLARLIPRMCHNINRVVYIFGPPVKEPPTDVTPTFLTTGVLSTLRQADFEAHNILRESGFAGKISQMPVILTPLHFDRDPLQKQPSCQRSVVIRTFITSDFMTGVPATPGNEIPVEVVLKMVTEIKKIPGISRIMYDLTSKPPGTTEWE
- Protocol Notes: In vitro inhibitory activity against partially purified GMP synthetase in L1210 cells
Readout: IC50 (nM)
Give the value in nM but do not write nM after it.

Input line: May I ask what IC50 has been recorded for O=C(Nc1nc(CN=C=S)cs1)c1ccccc1 ?
Output line: 350
